# SYSTEM TESTED: HIV protease (Human immunodeficiency virus type 1 group M subtype B, UniProt P04585)
# Construct: measurement of HIV-protease (HIV-PR) activity
# EXPERIMENTAL DETAILS: biochemical
# CONDITION INFO: Apparent Enzyme IC50, fluorogenic peptide substrate, 37° C., pH 4.7
Answer each item with its documented IC50.

O=[N+]([O-])c1cccc(CO[C@@H]2[C@H](O)[C@@H](O)[C@@H](OCc3cccc([N+](=O)[O-])c3)[C@@H](Cc3ccccc3)[S+]([O-])[C@@H]2Cc2ccccc2)c1 (some centres unmarked) [120/44] : < 2000 nM

Kindly review the next compound as well.
Lab request: please report IC50 under test system HIV protease (Human immunodeficiency virus type 1 group M subtype B, UniProt P04585) for O=[N+]([O-])c1cccc(CO[C@@H]2[C@H](O)[C@@H](O)[C@@H](OCc3cccc([N+](=O)[O-])c3)[C@@H](Cc3ccccc3)S(=O)(=O)[C@@H]2Cc2ccccc2)c1 [120/45]
< 2000 nM

---

# SYSTEM TESTED: HIV protease (Human immunodeficiency virus type 1 group M subtype B, UniProt P04585)
# Construct: measurement of HIV-protease (HIV-PR) activity
# EXPERIMENTAL DETAILS: biochemical
# CONDITION INFO: read-out: Apparent Enzyme IC50
QUANTITY KIND: IC50

Lab request: please report IC50 under test system HIV protease (Human immunodeficiency virus type 1 group M subtype B, UniProt P04585) for O=S1(=O)[C@H](Cc2ccccc2)[C@H](OCc2cncs2)[C@H](O)[C@@H](O)[C@@H](OCc2cncs2)[C@H]1Cc1ccccc1
< 2000 nM

---

# SYSTEM TESTED: HIV protease (Human immunodeficiency virus type 1 group M subtype B)
# Construct: measurement of HIV-protease (HIV-PR) activity
# EXPERIMENTAL DETAILS: biochemical
# CONDITION INFO: fluorogenic peptide substrate, 37° C., pH 4.7; read-out: Apparent Enzyme IC50
Answer each item with its documented IC50.

Give measured IC50 for every item shown.
1. O=S1(=O)[C@@H](Cc2ccccc2)[C@@H](OCc2ccccc2)[C@@H](O)[C@H](O)[C@H](OCc2ccccc2)[C@@H]1Cc1ccccc1 [108/27]
2. O=S1(=O)[C@H](Cc2ccccc2)[C@H](OCc2cccnc2)[C@H](O)[C@@H](O)[C@@H](OCc2cccnc2)[C@H]1Cc1ccccc1 [120/15]
3. [O-][S+]1[C@H](Cc2ccccc2)[C@H](OCc2ccccc2)[C@H](O)[C@@H](O)[C@@H](OCc2ccccc2)[C@H]1Cc1ccccc1 (some centres unmarked) [120/3]
4. O=S1(=O)C[C@H](OCc2ccccc2)[C@H](O)[C@@H](O)[C@@H](OCc2ccccc2)[C@H]1Cc1ccccc1 [107/5]
5. O[C@@H]1[C@@H](O)[C@@H](OCc2ccccc2)CS[C@H](Cc2ccccc2)[C@@H]1OCc1ccccc1 [107/2]
6. N#Cc1ccc(O[C@@H]2[C@H](O)[C@@H](O)[C@@H](Oc3ccc(C#N)cc3)CS(=O)(=O)[C@@H]2Cc2ccccc2)cc1 [107/15]
7. Nc1cccc(CO[C@@H]2[C@H](O)[C@@H](O)[C@@H](OCc3cccc(N)c3)[C@@H](Cc3ccccc3)S(=O)(=O)[C@@H]2Cc2ccccc2)c1 [120/46]
8. O=S1(=O)[C@H](Cc2ccccc2)[C@H](OCc2ccncc2)[C@H](O)[C@@H](O)[C@@H](OCc2ccncc2)[C@H]1Cc1ccccc1 [120/19]

["10000 to 50000 nM", "< 2000 nM", "< 2000 nM", "< 2000 nM", "10000 to 50000 nM", "2000 to 10000 nM", "< 2000 nM", "< 2000 nM"]

Give measured IC50 for every item shown.
1. CC1(C)O[C@@H]2[C@@H](O1)[C@@H](OCc1ccccn1)[C@@H](Cc1ccccc1)S(=O)(=O)[C@H](Cc1ccccc1)[C@@H]2OCc1ccccn1 [120/6]
2. N#Cc1ccc(O[C@@H]2[C@H](O)[C@@H](O)[C@@H](Oc3ccc(C#N)cc3)CS[C@@H]2Cc2ccccc2)cc1 [107/12]
3. [O-][S@@+]1[C@H](Cc2ccccc2)[C@H](OCc2ccccc2)[C@H](O)[C@@H](O)[C@@H](OCc2ccccc2)[C@@H]1Cc1ccccc1 [108/17]

["< 2000 nM", "2000 to 10000 nM", "2000 to 10000 nM"]
